These entries and their values trace back to paper PMC8151276.

Target: OXTR (Homo sapiens, UniProt P30559)
Construct: purchased Promega (in-house HiBiT-GPCR construct library, NanoBRET)
Sequence (P30559 whole entry): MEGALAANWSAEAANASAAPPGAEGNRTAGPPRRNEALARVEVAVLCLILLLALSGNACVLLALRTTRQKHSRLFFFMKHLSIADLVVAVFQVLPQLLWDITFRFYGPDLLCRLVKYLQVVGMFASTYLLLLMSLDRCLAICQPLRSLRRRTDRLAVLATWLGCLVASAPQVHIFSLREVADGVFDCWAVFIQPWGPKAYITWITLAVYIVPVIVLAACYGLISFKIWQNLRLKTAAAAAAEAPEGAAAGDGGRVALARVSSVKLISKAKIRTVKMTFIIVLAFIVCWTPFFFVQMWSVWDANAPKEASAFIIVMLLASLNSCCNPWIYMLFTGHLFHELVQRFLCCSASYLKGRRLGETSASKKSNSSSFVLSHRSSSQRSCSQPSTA
Assay: NanoBRET screen HiBiT-OXTR in HEK293
Format: binding
Settings: OXTR; tracer 1μM
Reported NanoBRET Fold Response values for the following compounds.
I'd appreciate a reply containing only the number, no unit.

// solved cases for NanoBRET Fold Response follow
O=C(CCc1ccc2n1[B-](F)(F)[N+]1=C(c3ccc[nH]3)C=CC1=C2)NCc1ccc(C(=O)NCCOCCC(=O)N[C@@H]2CC[C@@]3(O)[C@H]4Cc5ccc(O)c6c5[C@@]3(CCN4CC3CC3)[C@H]2O6)cc1 [Naltrexone-3-NB590]
0.91
CC(C)N(CC[C@H](c1ccccc1)c1cc(CCNC(=O)CCOCCOCCOCCOCCNC(=O)CCc2ccc3n2[B-](F)(F)[N+]2=C(c4ccc[nH]4)C=CC2=C3)ccc1O)C(C)C
0.94
Cc1nc2n(c(=O)c1CCN1CCC(c3noc4cc(F)ccc34)CC1)CCCC2OC(=O)NCCOCCOCCOCCOCCNC(=O)CCc1ccc2n1[B-](F)(F)[N+]1=C(c3ccc[nH]3)C=CC1=C2 (centres unmarked)
0.97
O=C(CCOCCOCCOCCOCCNC(=O)CCc1ccc2n1[B-](F)(F)[N+]1=C(c3ccc[nH]3)C=CC1=C2)NCCCN1CCN(C2=Nc3ccccc3Oc3ccc(Cl)cc32)CC1
1.02

For "COc1ccccc1N1CCN(CCCCN2C(=O)c3ccc(CNC(=O)CCOCCNC(=O)c4ccc(CNC(=O)CCc5ccc6n5[B-](F)(F)[N+]5=C(c7ccc[nH]7)C=CC5=C6)cc4)cc3C2=O)CC1" , what is its reported NanoBRET Fold Response?
1.05
